Reported binding signal by item:
test-system: T1, GST-hnRNP L (UniProt P14866 1-589)
T1 sequence: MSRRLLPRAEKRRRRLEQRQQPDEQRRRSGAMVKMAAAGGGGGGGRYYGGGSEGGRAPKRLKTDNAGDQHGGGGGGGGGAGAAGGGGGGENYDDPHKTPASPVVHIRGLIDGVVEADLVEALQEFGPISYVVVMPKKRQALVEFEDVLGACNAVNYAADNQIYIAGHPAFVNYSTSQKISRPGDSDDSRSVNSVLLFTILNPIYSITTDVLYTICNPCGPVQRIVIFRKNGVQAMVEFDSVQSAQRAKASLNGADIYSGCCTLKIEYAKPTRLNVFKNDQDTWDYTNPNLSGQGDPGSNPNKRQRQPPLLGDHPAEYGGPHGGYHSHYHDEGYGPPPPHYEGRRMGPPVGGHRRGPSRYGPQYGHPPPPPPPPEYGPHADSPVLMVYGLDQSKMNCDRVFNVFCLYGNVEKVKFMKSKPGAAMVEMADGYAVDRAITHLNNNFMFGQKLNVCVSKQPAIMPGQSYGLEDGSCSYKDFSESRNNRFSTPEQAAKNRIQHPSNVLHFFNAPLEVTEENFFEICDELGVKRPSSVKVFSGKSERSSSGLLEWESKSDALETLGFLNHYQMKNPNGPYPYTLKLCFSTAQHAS
assay-summary: EMSA; EMSA: ~1 fmol 32P RNA (0.1 nM), 4.5% native PAGE; binding buffer as in cited ref 9, not given; BC50 values printed only in figures
details: protein: recombinant; label: 32P-CTP body label

Recorded binding signal, per entry:
# binder, reported-metric, reported-value
rows = [
    ("CUUACCUACUCACACCACUGGAUUCUCACCCGCAAGCACC (ssRNA) [ESS1 CA4 mutant (CA to GA)]", "binding signal", "~2 fold weaker than ESS1"),
    ("CUUACCUACUCACACCACUGCAUUCUCACCCGGAAGCACC (ssRNA) [ESS1 CA6 mutant (CA to GA)]", "binding signal", "~10 fold weaker than ESS1"),
]

Which binding signal value is on record for CUUACCUACUCAGACCACUGCAUUCUCACCCGCAAGCACC (ssRNA) [ESS1 CA2 mutant (CA to GA)] ?
~2 fold weaker than ESS1

Which binding signal value is on record for CUUACCUACUCACACGACUGCAUUCUCACCCGCAAGCACC (ssRNA) [ESS1 CA3 mutant (CA to GA)] ?
~4 fold weaker than ESS1
